This collection of values is drawn from patent US20100113510A1.

# measured.on: human muscarinic acetylcholine M3 receptor (M3-ACh) (Homo sapiens, UniProt P20309)
# Construct: expressed in transfected cells; host or cells: CHO-K1 (Chinese Hamster Ovary) cell membranes
# Sequence (P20309 whole entry): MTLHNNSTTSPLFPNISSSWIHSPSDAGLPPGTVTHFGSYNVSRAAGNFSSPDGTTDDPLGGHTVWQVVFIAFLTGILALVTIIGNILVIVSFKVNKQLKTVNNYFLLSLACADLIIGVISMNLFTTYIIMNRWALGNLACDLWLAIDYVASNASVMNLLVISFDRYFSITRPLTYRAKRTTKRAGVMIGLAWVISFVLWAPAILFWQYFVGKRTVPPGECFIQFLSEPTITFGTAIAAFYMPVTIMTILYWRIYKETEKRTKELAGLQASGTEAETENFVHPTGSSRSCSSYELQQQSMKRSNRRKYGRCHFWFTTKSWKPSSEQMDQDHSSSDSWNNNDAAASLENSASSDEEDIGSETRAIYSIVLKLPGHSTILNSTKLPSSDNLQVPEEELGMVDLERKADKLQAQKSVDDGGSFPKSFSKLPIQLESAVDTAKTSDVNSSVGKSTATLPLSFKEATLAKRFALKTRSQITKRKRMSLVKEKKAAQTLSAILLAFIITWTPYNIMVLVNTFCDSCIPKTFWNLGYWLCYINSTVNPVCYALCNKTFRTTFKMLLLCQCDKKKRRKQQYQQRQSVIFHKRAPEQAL
# assay.overview: biochemical
# Type: binding
# reported.conditions: pIC50
measured.quantity: pIC50
Would you please state pIC50, meaning minus log10 of the concentration in mol/L, as a bare number?

Recall the recorded pIC50 for CC(C(=O)O[C@H]1C[N+]2(CC(=O)Nc3ccon3)CCC1CC2)(c1ccccc1)N1CCCCCC1 (single isomer, unassigned) with human muscarinic acetylcholine M3 receptor (M3-ACh) (Homo sapiens, UniProt P20309) and state it.
9.20

###

# measured.on: human muscarinic acetylcholine M3 receptor (M3-ACh) (Homo sapiens, UniProt P20309)
# Construct: expressed in transfected cells; host or cells: CHO-K1 (Chinese Hamster Ovary) cell membranes
# assay.overview: biochemical
# Type: binding
# reported.conditions: pIC50 (M3 Binding IC50 classes)
pIC50: −log10 of the molar value.
Provide the reported pIC50 of each item.

Would you kindly share the measured pIC50 for CC(C(=O)O[C@H]1C[N+]2(CCc3cccc(Cl)c3)CCC1CC2)(c1ccccc1)N1CCOCC1 (single isomer, unassigned) [Example 79] ?
> 8.70

Also need C[C@@](C(=O)O[C@H]1C[N+]2(CC(=O)c3sccc3Cl)CCC1CC2)(c1ccccc1)N1CCCCC1 [Example 4] , thanks.
8.00 to 8.70

Also need CC(C(=O)O[C@H]1C[N+]2(CCc3cccc(Cl)c3)CCC1CC2)(c1ccccc1)N1CCSCC1 (single isomer, unassigned) [Example 98] , thanks.
> 8.70

Also need CC(C(=O)O[C@H]1C[N+]2(CC(=O)Nc3ccc(Cl)nn3)CCC1CC2)(c1cccs1)N1CCCCC1 (single isomer, unassigned) [Example 72] , thanks.
> 8.70

Also need C[C@@](C(=O)O[C@H]1C[N+]2(CC[C@H](O)c3ccccc3)CCC1CC2)(c1ccccc1)N1CCCCC1 [Example 38] , thanks.
> 8.70

Also need Cc1cc(OCCC[N+]23CCC(CC2)[C@@H](OC(=O)C(C)(c2cccs2)N2CCCCC2)C3)cc(C)n1 (single isomer, unassigned) [Example 81] , thanks.
8.00 to 8.70
